The measured values listed here are drawn from ChEMBL document CHEMBL1255516.

# Protocol Description: Half life in Sprague-Dawley rat at 4 mg/kg, iv
# Assay type: ADME, organism-based
# Parameters: dose 4 mg/kg, route intravenous
# Test Context: in vivo
Metric: half-life (h)
Response body: numeric value in h, unit text excluded.

Compound | Measurement Unit | Recorded Measurement
CC(=O)NCCc1ccccc1-c1ccc(C(CN)Cc2ccc(OCCOc3c(Cl)cc(C)cc3Cl)cc2)c(C)c1 (configuration not stated) | h | 7

Query: Item "COCCCc1ccc(Cl)c(CN(C(=O)[C@@H](CN)Cc2ccc(OCCOc3c(Cl)cc(C)cc3Cl)cc2)C2CC2)c1" has what recorded half-life?
Result: 6

###

Recorded pIC50, one value per entry.
# System Tested: Renin (Homo sapiens, UniProt P00797)
# Sequence (P00797 whole entry): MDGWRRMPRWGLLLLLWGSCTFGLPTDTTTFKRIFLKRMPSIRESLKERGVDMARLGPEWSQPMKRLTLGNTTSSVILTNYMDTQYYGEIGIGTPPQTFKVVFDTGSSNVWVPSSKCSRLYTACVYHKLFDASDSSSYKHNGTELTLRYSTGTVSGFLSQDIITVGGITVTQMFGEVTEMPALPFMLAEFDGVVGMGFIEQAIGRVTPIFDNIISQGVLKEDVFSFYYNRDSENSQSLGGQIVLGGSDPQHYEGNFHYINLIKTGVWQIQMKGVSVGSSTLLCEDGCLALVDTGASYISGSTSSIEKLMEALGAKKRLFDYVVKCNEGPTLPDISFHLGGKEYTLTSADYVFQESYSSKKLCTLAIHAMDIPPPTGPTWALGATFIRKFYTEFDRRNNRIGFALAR
# Protocol Description: Inhibition of human recombinant renin in plasma
# pIC50: negative log10 of molar concentration; output just the value

Some molecules with recorded pIC50:
Molecule | Metric | Recorded Measurement
Cc1cc(Cl)c(OCCOc2ccc(CC(CN)c3ccc(-c4ccccc4CCOC(N)=O)cc3C)cc2)c(Cl)c1 (centres undefined) | pIC50 | 6.99
CC(=O)NCc1ccccc1-c1ccc(C(CN)Cc2ccc(OCCOc3c(Cl)cc(C)cc3Cl)cc2)c(C)c1 (centres undefined) | pIC50 | 6.86
Cc1cc(Cl)c(OCCOc2ccc(CC(CN)c3ccc(-c4cncnc4)cc3C)cc2)c(Cl)c1 (centres undefined) | pIC50 | 6.21
Cc1cc(Cl)c(OCCOc2ccc(CC(CN)c3ccc(-c4cnc5cnccn45)cc3C)cc2)c(Cl)c1 (centres undefined) | pIC50 | 6.38
Cc1cc(Cl)c(OCCOc2ccc(CC(CN)c3ccc(-c4ccccc4CCC(=O)N(C)C)cc3C)cc2)c(Cl)c1 (centres undefined) | pIC50 | 5.95
Cc1cc(Cl)c(OCCOc2ccc(CC(CN)c3ccc(-c4ccnc(N)c4)cc3C)cc2)c(Cl)c1 (centres undefined) | pIC50 | 6.64
CC(=O)NCCCc1ccccc1-c1ccc(C(CN)Cc2ccc(OCCOc3c(Cl)cc(C)cc3Cl)cc2)c(C)c1 (centres undefined) | pIC50 | 6.88
COC(=O)Cc1ccccc1-c1ccc(C(CN)Cc2ccc(OCCOc3c(Cl)cc(C)cc3Cl)cc2)c(C)c1 (centres undefined) | pIC50 | 6.27

Consider now this further molecule.
Query: I have this molecule here, COC(=O)CCc1ccccc1-c1ccc(C(CN)Cc2ccc(OCCOc3c(Cl)cc(C)cc3Cl)cc2)c(C)c1 (centres undefined) , and I need its recorded pIC50.
Result: 6.85

###

List of IC50 values.
# System Tested: Renin (Homo sapiens)
# Protocol Description: Inhibition of human recombinant renin in phosphate buffer
Record the value in nM, omitting the unit from your answer.

Compound | Measurement Unit | Recorded Measurement
CC(=O)NCCc1ccccc1-c1ccc(C(CN)Cc2ccc(OCCOc3c(Cl)cc(C)cc3Cl)cc2)c(C)c1 (stereo not drawn) | nM | 0.04
COCCCc1ccccc1-c1ccc(C(CN)Cc2ccc(OCCOc3c(Cl)cc(C)cc3Cl)cc2)c(C)c1 (stereo not drawn) | nM | 0.44

Now take the following compound into account.
Query: Recorded IC50 for Cc1cc(Cl)c(OCCOc2ccc(CC(CN)c3ccc(-c4cnc5cnccn45)cc3C)cc2)c(Cl)c1 (stereo not drawn) , please?
Result: 3.9

###

# Protocol Description: AUC in Sprague-Dawley rat at 30 mg/kg, po
# Test Context: Sprague-Dawley, plasma
Metric: AUC (µM·h)
Write the value in µM·h as a bare number.

Query: AUC lookup needed for CC(=O)NCCc1ccccc1-c1ccc(C(CN)Cc2ccc(OCCOc3c(Cl)cc(C)cc3Cl)cc2)c(C)c1 (stereo unspecified) , thanks.
Result: 5.5

###

# Protocol Description: Clearance in Sprague-Dawley rat at 4 mg/kg, iv
# Type: ADME, organism-based
# Parameters: dose 4 mg/kg, route intravenous
# Test Context: in vivo
Metric: clearance (mL/min/kg)
Give the number; mL/min/kg is assumed, so skip it.

Query: // clearance lookup, key: CC(=O)NCCc1ccccc1-c1ccc(C(CN)Cc2ccc(OCCOc3c(Cl)cc(C)cc3Cl)cc2)c(C)c1 (stereo unspecified)
Result: 34

###

Vd values by entry
# Protocol Description: Volume of distribution at steady state in Sprague-Dawley rat at 4 mg/kg, iv
# Format: ADME, organism-based
# Set-up: dose 4 mg/kg, route intravenous
# Test Context: in vivo, read-out: Vdss
Record the value in L/kg, omitting the unit from your answer.

Compound | Measurement Unit | Vd
COCCCc1ccc(Cl)c(CN(C(=O)[C@@H](CN)Cc2ccc(OCCOc3c(Cl)cc(C)cc3Cl)cc2)C2CC2)c1 | L/kg | 12

Now examine the next entry.
Query: Which value of Vd has been reported for CC(=O)NCCc1ccccc1-c1ccc(C(CN)Cc2ccc(OCCOc3c(Cl)cc(C)cc3Cl)cc2)c(C)c1 (configuration not stated) in the records?
Result: 9

###

# System Tested: Renin (Homo sapiens, UniProt P00797)
# Protocol Description: Inhibition of human recombinant renin in phosphate buffer
pIC50: −log10 of the molar value.
Kindly return satisfied if reported pIC50 is no lower than 9; return not satisfied if it is lower.

Below, 4 molecules whose answers are already recorded.
Molecule | Class Name
COC(=O)Cc1ccccc1-c1ccc(C(CN)Cc2ccc(OCCOc3c(Cl)cc(C)cc3Cl)cc2)c(C)c1 (stereo not drawn) | not satisfied
Cc1cc(Cl)c(OCCOc2ccc(CC(CN)c3ccc(-c4cncnc4)cc3C)cc2)c(Cl)c1 (stereo not drawn) | not satisfied
CC(=O)NCc1ccccc1-c1ccc(C(CN)Cc2ccc(OCCOc3c(Cl)cc(C)cc3Cl)cc2)c(C)c1 (stereo not drawn) | not satisfied
Cc1cc(Cl)c(OCCOc2ccc(CC(CN)c3ccc(-c4ccccc4Cl)cc3Cl)cc2)c(Cl)c1 (stereo not drawn) | satisfied

Here's the next entry for you.
Query: For this molecule, is measured pIC50 9 or higher? COC(=O)CCc1ccccc1-c1ccc(C(CN)Cc2ccc(OCCOc3c(Cl)cc(C)cc3Cl)cc2)c(C)c1 (stereo not drawn)
Result: satisfied

###

# Protocol Description: Oral bioavailability in Sprague-Dawley rat at 30 mg/kg
# Type: ADME, organism-based
# Test Context: in vivo
Metric: bioavailability (%)
Record the value in %, omitting the unit from your answer.

Query: bioavailability; subject: CC(=O)NCCc1ccccc1-c1ccc(C(CN)Cc2ccc(OCCOc3c(Cl)cc(C)cc3Cl)cc2)c(C)c1 (stereo unspecified)
Result: 23

###

# System Tested: Renin (Homo sapiens, UniProt P00797)
# Protocol Description: Inhibition of human recombinant renin in phosphate buffer
Metric: pIC50
pIC50 is a log-scale quantity: -log10 of the concentration expressed in molar.

# example entries with known answers
Compound | pIC50
Cc1cc(Cl)c(OCCOc2ccc(CC(CN)c3ccc(-c4ccccc4CCOC(N)=O)cc3C)cc2)c(Cl)c1 (stereo not drawn) | 8.99
Cc1cc(Cl)c(OCCOc2ccc(CC(CN)c3ccc(-c4ccnc(N)c4)cc3C)cc2)c(Cl)c1 (stereo not drawn) | 8.77

// next entry
Query: Requested read-out pIC50, target or system Renin (Homo sapiens, UniProt P00797), entry CC(=O)NCCCc1ccccc1-c1ccc(C(CN)Cc2ccc(OCCOc3c(Cl)cc(C)cc3Cl)cc2)c(C)c1 (stereo not drawn)
Result: 9.01
